Below, each entry is listed alongside its reported IC50.
- TARGET_UNDER_TEST: VIM-2 (Escherichia coli)
- MEASUREMENT_PROTOCOL: biochemical
- CONDITION: CCF2-FA fluorescence assay; read-out: VIM2 IC50
PROPERTY: IC50 (nM)

# COMPOUND, PROPERTY, TEST_VALUE
rows = [
    ("NC(=O)C1CCN(c2ccc(S(=O)(=O)N[C@@H]3CCNC3)c(S(N)(=O)=O)c2-c2nnn[nH]2)CC1", "IC50", 1.18),
    ("NS(=O)(=O)c1c(S(=O)(=O)N[C@@H]2CCNC2)ccc(N2CCNCC2)c1-c1nnn[nH]1", "IC50", 36.4),
    ("CC(=O)N[C@@H]1CCN(c2ccc(S(=O)(=O)N[C@@H]3CCNC3)c(S(N)(=O)=O)c2-c2nnn[nH]2)C1", "IC50", 6.09),
    ("NC[C@@H](O)CNS(=O)(=O)c1ccc(N2CCOC(CO)C2)c(-c2nn[nH]n2)c1S(N)(=O)=O (stereo partly shown)", "IC50", 0.49),
]

====

Endpoint: pIC50. System: IMP-1 (Serratia marcescens). Items follow.
Sequence (P52699 whole entry, looked up, species assumed): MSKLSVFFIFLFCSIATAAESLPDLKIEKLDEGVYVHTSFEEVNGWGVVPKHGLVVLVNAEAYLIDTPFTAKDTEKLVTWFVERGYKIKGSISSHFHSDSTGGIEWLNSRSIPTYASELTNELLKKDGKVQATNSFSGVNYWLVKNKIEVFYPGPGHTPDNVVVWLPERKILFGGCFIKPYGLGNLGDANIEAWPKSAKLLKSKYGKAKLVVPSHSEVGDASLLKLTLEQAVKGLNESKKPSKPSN
pIC50: −log10 of the molar value.
PROPERTY: pIC50

# MOLECULE, TARGET_UNDER_TEST, TEST_VALUE
rows = [
    ("NCC(O)C1CCN(c2ccc(S(=O)(=O)NC[C@H](O)CN)c(S(N)(=O)=O)c2-c2nn[nH]n2)CC1 (stereo partly shown)", "IMP-1 (Serratia marcescens)", 8.60),
    ("NCC1(O)CCN(c2ccc(S(=O)(=O)N[C@@H]3CCNC3)c(S(N)(=O)=O)c2-c2nnn[nH]2)CC1", "IMP-1 (Serratia marcescens)", 8.00),
    ("COC(=O)C1CCN(c2ccc(S(=O)(=O)N[C@@H]3CCNC3)c(S(N)(=O)=O)c2-c2nn[nH]n2)CCN1.Cl (stereo partly shown) [Example 164, hydrochloride]", "IMP-1 (Serratia marcescens)", 9.27),
    ("COC1(CO)CCN(c2ccc(S(=O)(=O)N[C@H](C)CN)c(S(N)(=O)=O)c2-c2nn[nH]n2)CC1", "IMP-1 (Serratia marcescens)", 9.43),
    ("NCCC1CCN(c2ccc(S(=O)(=O)N[C@H](CN)CO)c(S(N)(=O)=O)c2-c2nn[nH]n2)CC1", "IMP-1 (Serratia marcescens)", 8.43),
    ("NS(=O)(=O)c1c(S(=O)(=O)C2CNC2)ccc(N2C[C@H](O)C[C@@H](O)C2)c1-c1nnn[nH]1", "IMP-1 (Serratia marcescens)", 6.70),
    ("NS(=O)(=O)c1c(S(=O)(=O)N[C@@H]2CCNC2)ccc(NC2CCOCC2)c1-c1nnn[nH]1", "IMP-1 (Serratia marcescens)", 8.35),
]

====

Below, each entry is listed alongside its reported Efflux ratio.
- Test system: P. aeruginosa MB9798 (efflux+, IMP-1 plasmid)
- CONDITION: fold difference between efflux+ (MB9798) and efflux− (MB9799) strains
PROPERTY: Efflux ratio

# MOLECULE, PROPERTY, TEST_VALUE
records = [
    ("N.NC[C@@H](O)CNS(=O)(=O)c1ccc(N2CCN(CC(=O)O)CC2)c(-c2nnn[nH]2)c1S(N)(=O)=O [Example 137]", "Efflux ratio", 2.00),
    ("NC[C@@H](O)CNS(=O)(=O)c1ccc(N2CCC(c3c[nH]cn3)CC2)c(-c2nnn[nH]2)c1S(N)(=O)=O [Example 169]", "Efflux ratio", 1.00),
    ("NS(=O)(=O)c1c(S(=O)(=O)N[C@@H]2CCNC2)ccc(N2CC[C@H](O)C2)c1-c1nnn[nH]1 [Example 97]", "Efflux ratio", 2.00),
    ("C[C@H](CN)NS(=O)(=O)c1ccc(N2CCC(CCN)CC2)c(-c2nn[nH]n2)c1S(N)(=O)=O [Example 185]", "Efflux ratio", 1.00),
    ("C[C@H](CN)NS(=O)(=O)c1ccc(N2CCC(CO)CC2)c(-c2nnn[nH]2)c1S(N)(=O)=O [Example 46]", "Efflux ratio", 1.00),
    ("NCC1CCN(c2ccc(S(=O)(=O)N[C@@H]3CCNC3)c(S(N)(=O)=O)c2-c2nn[nH]n2)CCN1 (stereo partly shown) [Example 163]", "Efflux ratio", 2.00),
    ("NS(=O)(=O)c1c(S(=O)(=O)N[C@@H]2CCNC2)ccc(N2CCCC(C(=O)NCCCO)C2)c1-c1nnn[nH]1 (stereo partly shown) [Example 108]", "Efflux ratio", 2.00),
]

Data credit: patent US11207312B2
